experiment.summary: LFS_MB_1R medulloblastoma cell growth inhibition, synergistic combos for chromothripsis tumors, cisplatin or BGB combos (AID 1671452);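 note: cells exposed for 96 hours before readout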
condition.label: LFS_MB_1R medulloblastoma cells, at 0.5 µM, active compounds read high
Can you tell me inhibition for the items I'm about to list?
Write it as a number; the unit % goes unstated.

Please report inhibition for the following compound: Cc1c2ccncc2c(C)c2c1[nH]c1ccccc12
52.5

Please report inhibition for the following compound: O=c1[nH]c(=O)n(C2OC(CO)C(O)C2O)cc1F (stereo not given)
-13.3

Please report inhibition for the following compound: CCC1(c2ccccc2)C(=O)NC(=O)NC1=O
-18.1

Please report inhibition for the following compound: CN(C)NC(=O)CCC(=O)O
-2.69

Please report inhibition for the following compound: CC1(C)C(C(=O)Nc2ccc(S(=O)(=O)c3ccc(NC(=O)C4C(C)(C)C4(C)C)cc3)cc2)C1(C)C
-36.5

----------
experiment.summary: inhibition of endothelial tube formation, primary screen, imaging, VEGF stimulated, CD31 staining, tube area, NPC library (AID 1117340)
condition.label: VEGF-stimulated ADSC/ECFC co-culture, at 10 µM
Activity calls are given as the source filed them.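 The calls were made as follows: active = compound that reduces growth-factor-driven endothelial tube area in a mixed cell culture, no cutoff stated; inactive = the rest.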
Permitted responses: active, inactive

Check the results log: what was the call for COP(=O)(OC)C(O)C(Cl)(Cl)Cl (configuration not stated) ?
inactive

Check the results log: what was the call for c1cc2c(c(N3CCNCC3)c1)OCCO2 ?
inactive

Check the results log: what was the call for CC(=O)NC1CCSC1=O (configuration not stated) ?
inactive

Check the results log: what was the call for O=C(O)c1cc(Oc2ccc(C(F)(F)F)cc2Cl)ccc1[N+](=O)[O-] ?
inactive

Check the results log: what was the call for O=C(O)c1ccc(=O)[nH]c1 ?
inactive

Check the results log: what was the call for CNC(C)[C@@H](O)c1ccc(O)cc1 (some centres not stated) ?
inactive

Check the results log: what was the call for COc1ccc2c(C(=O)c3ccc(Cl)cc3)c(C)n(CC(=O)O)c2c1 ?
inactive

Check the results log: what was the call for O=c1[nH]c2ccccc2n1CCCN1CCC(n2c(=O)[nH]c3cc(Cl)ccc32)CC1 ?
inactive

Check the results log: what was the call for O=c1[nH]c2ccccc2n1C1CCN(CCCC(c2ccc(F)cc2)c2ccc(F)cc2)CC1 ?
active

Check the results log: what was the call for CNC(C)Cc1ccccc1OC (configuration not stated) ?
inactive

Check the results log: what was the call for O=c1ccc2cc(O[C@@H]3O[C@H](CO)[C@H](O)[C@H](O)[C@H]3O)c(O)cc2o1 ?
inactive

Check the results log: what was the call for NN=C(N)N ?
inactive

Check the results log: what was the call for CN(C)[C@@H]1C(=O)C(C(N)=O)=C(O)[C@@]2(O)C(=O)C3=C(O)c4c(O)cccc4[C@@](C)(O)[C@H]3C[C@@H]12 ?
inactive

Check the results log: what was the call for N[C@@H]1C[C@H]1c1ccccc1 ?
inactive

Check the results log: what was the call for Clc1cccc(N2CCNCC2)c1 ?
inactive

Check the results log: what was the call for CC(C)(C)NCC(O)c1cc(Cl)c(N)c(C(F)(F)F)c1 (configuration not stated) ?
inactive

Check the results log: what was the call for NC(=O)OCCCc1ccccc1 ?
inactive

Check the results log: what was the call for CNCC(=O)c1ccc(O)c(O)c1 ?
inactive

Check the results log: what was the call for COC(=O)C1=CCCN(C)C1 ?
inactive

Check the results log: what was the call for CNC(=O)Oc1cccc2ccccc12 ?
active

Check the results log: what was the call for CC1=C(C(=O)O)N2C(=O)[C@@H](N)[C@H]2SC1 ?
inactive

Check the results log: what was the call for CN1C(=O)NC(=O)C(C)(C2=CCCCC2)C1=O (configuration not stated) ?
inactive

Check the results log: what was the call for Nc1nc(N)nc(NC2CC2)n1 ?
inactive

Check the results log: what was the call for CC(=O)[O][Hg][c]1ccccc1 ?
active

Check the results log: what was the call for C[C@]12CC[C@H]3[C@@H](CCC4=CC(=O)CC[C@@H]43)[C@@H]1CC[C@@H]2OC(=O)CCc1ccco1 ?
active

Check the results log: what was the call for CCC(C(N)=O)N1CCCC1=O (configuration not stated) ?
inactive

Check the results log: what was the call for O=C(NC(O)C(Cl)(Cl)Cl)NC(O)C(Cl)(Cl)Cl (configuration not stated) ?
inactive

Check the results log: what was the call for O=P1(N(CCCl)CCCl)NCCCO1 (configuration not stated) ?
inactive

Check the results log: what was the call for NCCc1cc(O)c(O)cc1O ?
inactive

Check the results log: what was the call for O=C(CBr)Nc1ccc(Cl)cc1C(=O)c1ccccc1F ?
active

Check the results log: what was the call for CC(C)(C)NCC(O)c1cc(Cl)c(N)c(Cl)c1 (configuration not stated) ?
inactive

Check the results log: what was the call for C#C[C@]1(O)CC[C@H]2[C@@H]3CCC4=CC(=O)CCC4=C3C=C[C@@]21CC ?
active

Check the results log: what was the call for NCC(CC(=O)O)c1ccc(Cl)cc1 (configuration not stated) ?
inactive

Check the results log: what was the call for Oc1cccc2cccnc12 ?
inactive

Check the results log: what was the call for CN1[C@@H]2CC[C@H]1CC(OC(=O)c1cc(Cl)cc(Cl)c1)C2 (some centres not stated) ?
inactive

Check the results log: what was the call for O=C(O)CCCc1ccc(N(CCCl)CCCl)cc1 ?
active

Check the results log: what was the call for [N-]=[N+]=CC(=O)OC[C@H](N)C(=O)O ?
inactive

Check the results log: what was the call for CCC1(C2=NCCN2)Cc2ccccc2O1 (configuration not stated) ?
inactive

Check the results log: what was the call for CC(C)NCC(O)c1ccccc1Cl (configuration not stated) ?
inactive

Check the results log: what was the call for CC[N+](CC)(CC)CC ?
inactive

Check the results log: what was the call for C=CCN1C[C@H](C)N([C@H](c2ccc(C(=O)N(CC)CC)cc2)c2cccc(OC)c2)C[C@H]1C ?
inactive

Check the results log: what was the call for CC(C)NCC(O)c1ccc([N+](=O)[O-])cc1 (configuration not stated) ?
inactive

Check the results log: what was the call for CN1CCC(O)(c2ccc(F)cc2)C(C(=O)c2ccc(F)cc2)C1 (configuration not stated) ?
inactive

Check the results log: what was the call for Oc1ccc(Cl)cc1 ?
inactive

Check the results log: what was the call for FC(F)(F)c1cccc(C2=CCN(CCc3ccc4ccccc4c3)CC2)c1 ?
inactive

Check the results log: what was the call for O=C(NCNC(=O)NC1C(=O)NC(=O)N1CO)NC1C(=O)NC(=O)N1CO (configuration not stated) ?
inactive

Check the results log: what was the call for CC(Cc1ccc(O)cc1)NCC(O)c1cc(O)cc(O)c1 (configuration not stated) ?
inactive

Check the results log: what was the call for COc1ccc(Cc2nccc3cc(OC)c(OC)cc23)cc1OC ?
active

Check the results log: what was the call for Cn1c(CCCC(=O)O)nc2cc(N(CCCl)CCCl)ccc21 ?
active

Check the results log: what was the call for O=C(CCl)c1ccc(Cl)cc1Cl ?
active

Check the results log: what was the call for COP(=S)(OC)Oc1ccc(S(=O)(=O)N(C)C)cc1 ?
inactive

Check the results log: what was the call for O=C1OC(CCN2CCCCC2)OC1(c1ccccc1)c1ccccc1 (configuration not stated) ?
inactive
